tested-target: erythrocyte KCa3.1 channels (Homo sapiens (Human))
measurement-description: Erythrocyte KCa3.1 assay
stated-conditions: human erythrocytes, A23187-activated, 37° C.; read-out: RBC K (in vitro) Human IC50
pIC50: −log10 of the molar value.
measurement-type: pIC50

Answered cases to consult:
COC(=O)N(C[C@H]1CCCN1)C1(c2ccc(F)c(OC(F)(F)F)c2)CC1 [[29]]    6.48
COC(=O)N(C[C@@H]1CCCN1C)C1(c2ccc(F)c(C(F)(F)F)c2)CC1 [[27]]    6.52
COC(=O)N(C[C@]1(C)CCCN1)C1(c2ccc(F)c(C(F)(F)F)c2)CC1 [[50]]    6.82
COC(=O)N(CC(C)(C)N)C1(c2cc(Cl)cc(Cl)c2)CC1 [[11]]    6.52
COC(=O)N(CC(C)(C)N)C1(c2cccc(Br)c2)CC1 [[12]]    6.40

(a) COC(=O)N(CC1(N)CC1)C1(c2ccc(F)c(C(F)(F)F)c2)CC1 [[3]]
(b) N[C@H]1CCC[C@H]1NC1(c2ccc(F)c(C(F)(F)F)c2)CC1 [[52]]
(c) CC(C)(O)CN(CC1CCN1)C1(c2ccc(F)c(C(F)(F)F)c2)CC1 (stereo not drawn) [[14]]
(d) COC(=O)N(CCN)C1(c2ccc(F)c(C(F)(F)F)c2)CC1 [[7]]
(e) CC(C)(N)CN(C1CC1)C1(c2cccc(C(F)(F)F)c2)CC1 [[10]]
Challenge: // ranking: key=pIC50, reverse=True # respond with the labels, arranged in the requested order
Response given: e, b, a, c, d
(e: 7.62, b: 7.03, a: 6.80, c: 6.60, d: 6.32)
